- assay_protocol: OD615 S. cerevisiae growth inhibition, permissive medium, pilot counter-assay, permissive growth control for S. cerevisiae lifespan shortening project (AID 705)
- test_settings: OD615, 24 h, at 10 µM, active compounds read high
observed_property: growth inhibition (%)
One number for each entry, in %.

# annotated cases, reported growth inhibition shown
>  <compound>
CCn1c(-c2cc(OC)ccc2OC)csc1=Nc1c(C)n(C)n(-c2ccccc2)c1=O

>  <observed_property>
growth inhibition

>  <measured_result>
-11.1

$$$$
>  <compound>
O=c1c(N2CCOCC2)nsnc1N1CCOCC1

>  <observed_property>
growth inhibition

>  <measured_result>
8.28

$$$$
>  <compound>
CCOc1cc(-c2cc(N)n[nH]2)cc(OCC)c1OCC

>  <observed_property>
growth inhibition

>  <measured_result>
-14.5

$$$$
>  <compound>
CCOC(=O)CSc1nc2c(c(=O)n1-c1ccc(OC)cc1)SCC2

>  <observed_property>
growth inhibition

>  <measured_result>
-4.98

$$$$

# batch: return growth inhibition for each of the 4 compounds below
1. COc1ccccc1-c1nc(-c2ccccn2)no1
2. CN1CCN(C(=O)c2cc3c(s2)-c2ccccc2S(=O)(=O)C3)CC1
3. COC(=O)C(C(=O)OC)C(C(C)C)C(C(=O)OC)C(=O)OC
4. COc1ccc(-c2nnc(SCC(=O)Nc3cc(F)ccc3C)o2)cc1

1. -10.5
2. -2.05
3. -8.23
4. -4.83

# batch: return growth inhibition for each of the 7 compounds below
1. CCCCC(CC)C(=O)NCCc1ccc(S(N)(=O)=O)cc1 (centres undefined)
2. Brc1cccc(-c2nnc3sc(CNC4CCCC4)cn23)c1
3. Cc1cccc(OCC2=N/C(=C\N(C)C)C(=O)O2)c1
4. CC(=O)N1CCc2cc(C(=O)CN3CCCCC3)ccc21
5. CC(N=C1NS(=O)(=O)c2ccccc21)c1ccccc1 (centres undefined)
6. CCOc1ccccc1N(CC)C(=O)Cn1ncc2c(=O)oc3ccccc3c21
7. CCc1ccc(C(=O)NCc2cccs2)s1

1. -2.48
2. -6.88
3. -21.7
4. -6.58
5. 0.11
6. -11.6
7. -5.71

# batch: return growth inhibition for each of the 5 compounds below
1. CCC(C)NC(=O)CNC(=O)Cn1c(C)cc2ccccc2c1=O (centres undefined)
2. Cc1c(C(=O)N2CCCC2)oc2c1-c1[nH]ncc1CC2
3. Nc1ccccc1SCc1cn2cccnc2n1
4. CCOC(=O)c1[nH]c(C)c(C(=O)N(CC)CC)c1C
5. N#Cc1nc(COc2ccccc2)oc1N1CCCCC1

[-4.49, -15.2, 1.29, -10.8, -9.45]

# batch: return growth inhibition for each of the 2 compounds below
1. Cn1c(Cn2c(=O)sc3ccccc32)nnc1SCc1cccnc1
2. CCN(CC)S(=O)(=O)c1cccc(-c2nnc(SCc3nnc(-c4cccs4)o3)n2N)c1

[-3.75, 5.53]

# batch: return growth inhibition for each of the 2 compounds below
1. CCOc1ccc(N(CC(=O)Nc2nccs2)S(=O)(=O)c2c(C)noc2C)cc1
2. CCOc1ccccc1N1C(=O)CC(Nc2ccc(N3CCOCC3)cc2)C1=O (centres undefined)

-3.78
-0.205
